Where do the numbers come from? From patent US9714288B2.

The entries below come with measured Ranking (tolerability) values attached.
Experiment: Tolerability of antisense oligonucleotides in BALB/c mice
Assay type: in vivo
Settings: 50 mg/kg s.c. twice per week for three weeks, #1 most favorable, #13 least favorable
Oligonucleotides are written 5' to 3', each unit as a sugar letter and its base; * is a phosphorothioate linkage, no mark a phosphodiester; rarer units and linkages stand in square brackets, end groups in braces. Plain capitals give the bases only. k = constrained ethyl (cEt); [5mC] = 5-methylcytosine; d = 2'-deoxy (DNA)
recordedEndpoint: Ranking (tolerability)

* 632682 (antisense kG*kT*k[5mC]*dA*dT*dT*d[5mC]*dA*dA*d[5mC]*dA*dA*dG*kA*kA*kG) [compound 632682] | 11
* 632527 (antisense k[5mC]*kA*kT*d[5mC]*dA*dT*dA*dG*d[5mC]*d[5mC]*dA*dG*dG*k[5mC]*kG*k[5mC]) [compound 632527] | 8
* 632461 (antisense k[5mC]*kA*k[5mC]*dA*dG*dG*dG*dA*d[5mC]*dG*d[5mC]*dA*dT*kA*kA*k[5mC]) [compound 632461] | 2
* 632634 (antisense kG*kG*kA*dT*dT*dA*d[5mC]*dT*dG*dT*d[5mC]*d[5mC]*dT*kA*kG*kG) [compound 632634] | 10
* 632417 (antisense kG*kG*k[5mC]*d[5mC]*d[5mC]*dT*dG*dG*dA*dG*d[5mC]*dG*dA*kA*k[5mC]*k[5mC]) [compound 632417] | 1
* 632640 (antisense k[5mC]*kA*kA*dG*d[5mC]*dA*dA*d[5mC]*dA*dA*dG*dT*dG*kG*kG*k[5mC]) [compound 632640] | 3
* 632460 (antisense kA*kT*kA*dA*d[5mC]*d[5mC]*dA*dT*dG*d[5mC]*dT*d[5mC]*dG*kG*k[5mC]*k[5mC]) [compound 632460] | 13
* 632669 (antisense kT*kA*kA*dA*d[5mC]*dA*d[5mC]*dT*dT*dG*dT*d[5mC]*dA*kG*kA*kG) [compound 632669] | 4
* 632673 (antisense k[5mC]*kA*k[5mC]*dA*dT*d[5mC]*dA*dT*d[5mC]*d[5mC]*dA*dT*d[5mC]*k[5mC]*kG*kA) [compound 632673] | 7
* 632528 (antisense kA*kG*kG*dA*dA*d[5mC]*dA*dT*d[5mC]*dA*dT*dA*dG*k[5mC]*k[5mC]*kA) [compound 632528] | 5
* 632672 (antisense kA*kT*k[5mC]*d[5mC]*dA*dT*d[5mC]*d[5mC]*dG*dA*dG*dA*dA*k[5mC]*k[5mC]*kA) [compound 632672] | 6
* 632424 (antisense kA*kG*k[5mC]*d[5mC]*dG*d[5mC]*dA*dG*d[5mC]*d[5mC]*d[5mC]*dA*d[5mC]*k[5mC]*k[5mC]*kT) [compound 632424] | 9
* 632407 (antisense k[5mC]*kA*kT*d[5mC]*d[5mC]*dA*d[5mC]*d[5mC]*d[5mC]*dA*d[5mC]*dG*d[5mC]*k[5mC]*kG*kG) [compound 632407] | 12

* * *

Test system: MXD3 mRNA
Assay: MXD3 mRNA levels in K-562 cells by quantitative real-time PCR
Format: cell-based, human
Settings: K-562 cells electroporated with 10 μM, ~24 hours, relative to untreated control
Oligonucleotides are written 5' to 3', each unit as a sugar letter and its base; * is a phosphorothioate linkage, no mark a phosphodiester; rarer units and linkages stand in square brackets, end groups in braces. Plain capitals give the bases only. k = constrained ethyl (cEt); [5mC] = 5-methylcytosine; d = 2'-deoxy (DNA)
In this section, each of the substances is paired with its reported MXD3 mRNA at 10 μM oligonucleotide (% control).
recordedEndpoint: MXD3 mRNA at 10 μM oligonucleotide (% control)

• 632417 (antisense kG*kG*k[5mC]*d[5mC]*d[5mC]*dT*dG*dG*dA*dG*d[5mC]*dG*dA*kA*k[5mC]*k[5mC]) [compound 632417] = 38.3 % control
• 632407 (antisense k[5mC]*kA*kT*d[5mC]*d[5mC]*dA*d[5mC]*d[5mC]*d[5mC]*dA*d[5mC]*dG*d[5mC]*k[5mC]*kG*kG) [compound 632407] = 60.5 % control
• 632673 (antisense k[5mC]*kA*k[5mC]*dA*dT*d[5mC]*dA*dT*d[5mC]*d[5mC]*dA*dT*d[5mC]*k[5mC]*kG*kA) [compound 632673] = 27.5 % control
• 632461 (antisense k[5mC]*kA*k[5mC]*dA*dG*dG*dG*dA*d[5mC]*dG*d[5mC]*dA*dT*kA*kA*k[5mC]) [compound 632461] = 59.8 % control
• 632669 (antisense kT*kA*kA*dA*d[5mC]*dA*d[5mC]*dT*dT*dG*dT*d[5mC]*dA*kG*kA*kG) [compound 632669] = 34.0 % control
• 632640 (antisense k[5mC]*kA*kA*dG*d[5mC]*dA*dA*d[5mC]*dA*dA*dG*dT*dG*kG*kG*k[5mC]) [compound 632640] = 65.6 % control
• 632634 (antisense kG*kG*kA*dT*dT*dA*d[5mC]*dT*dG*dT*d[5mC]*d[5mC]*dT*kA*kG*kG) [compound 632634] = 47.4 % control
• 632672 (antisense kA*kT*k[5mC]*d[5mC]*dA*dT*d[5mC]*d[5mC]*dG*dA*dG*dA*dA*k[5mC]*k[5mC]*kA) [compound 632672] = 50.3 % control
• 632460 (antisense kA*kT*kA*dA*d[5mC]*d[5mC]*dA*dT*dG*d[5mC]*dT*d[5mC]*dG*kG*k[5mC]*k[5mC]) [compound 632460] = 59.0 % control
• 632527 (antisense k[5mC]*kA*kT*d[5mC]*dA*dT*dA*dG*d[5mC]*d[5mC]*dA*dG*dG*k[5mC]*kG*k[5mC]) [compound 632527] = 76.5 % control
• 632424 (antisense kA*kG*k[5mC]*d[5mC]*dG*d[5mC]*dA*dG*d[5mC]*d[5mC]*d[5mC]*dA*d[5mC]*k[5mC]*k[5mC]*kT) [compound 632424] = 94.4 % control
• 632528 (antisense kA*kG*kG*dA*dA*d[5mC]*dA*dT*d[5mC]*dA*dT*dA*dG*k[5mC]*k[5mC]*kA) [compound 632528] = 63.6 % control
• 632682 (antisense kG*kT*k[5mC]*dA*dT*dT*d[5mC]*dA*dA*d[5mC]*dA*dA*dG*kA*kA*kG) [compound 632682] = 28.4 % control
